- Test system: purified anti-estrogen polyclonal antibody
- Method description: Cross reactivity of purified anti-estrogen polyclonal antibody
- Format: binding, rabbit
- Assay conditions: assuming E2=100%
Listed here: items and their measured Cross reactivity.
Number in %, nothing else.

Compound	Cross reactivity / %
C[C@]12CC[C@@H]3c4ccc(O)cc4CC[C@H]3[C@@H]1CC[C@@H]2O [17β-Estradiol (E2), 17β-Estradiol]	100

Task: Entry C#C[C@]1(O)CC[C@H]2[C@@H]3CCc4cc(O)ccc4[C@H]3CC[C@@]21C [Ethynylestradiol (EE2), Ethynylestradiol] has what Cross reactivity?
Output: 7

Task: Which value of Cross reactivity has been reported for C[C@]12CC[C@@H]3c4ccc(O)cc4CC[C@H]3[C@@H]1C[C@@H](O)[C@@H]2O [Estriol (E3), Estriol] in the records?
Output: 69

* * *

- Test system: purified anti-resin component antibody
- Method description: Cross reactivity of purified anti-resin component antibody
- Type: binding, rabbit
- Assay conditions: assuming BPA=100%
Property: Cross reactivity (%)
The figure you give is taken to be in %; do not add the unit.

Take a look at these entries with their results.
Molecule	Assay target	Cross reactivity (%)
CC(=O)Oc1ccc(C(C)(C)c2ccc(OC(C)=O)cc2)cc1 [BPA diacetate]	purified anti-resin component antibody	11.1
Oc1ccc(Cc2ccc(O)cc2)cc1 [Bis(p-hydroxyphenyl)methane]	purified anti-resin component antibody	1.0

In the following, a different molecule is considered.
Task: Return Cross reactivity measured with purified anti-resin component antibody given this molecule: C=C(C)C(=O)Oc1ccc(C(C)(C)c2ccc(OC(=O)C(=C)C)cc2)cc1 [BPA dimethacrylate]
Output: 2.7

* * *

Measured Cross reactivity, listed per entry for reference.
- System: purified anti-estrogen polyclonal antibody
- Method description: Cross reactivity of purified anti-estrogen polyclonal antibody
- Assay type: binding, rabbit
- Assay conditions: assuming E2=100%

Guide cases for Cross reactivity, answers given:
Compound	Cross reactivity
CCCCC(CC)COC(=O)c1ccccc1C(=O)OCC(CC)CCCC (stereo not drawn) [Diethylhexyl phthalate (DEHP), Diethylhexyl phthalate]	<0.02%
CC(C)(c1ccc(O)cc1)c1ccc(O)cc1	<0.02%

The record that follows has no Cross reactivity shown yet.
Task: Report Cross reactivity for Oc1ccc(Cl)cc1Cl please.
Output: <0.02%
